Ref: ChEMBL document CHEMBL1133765

Assign logD to each entry below.
test: physchem; conditions: octanol/water, pH 6.5

CC(C)(C)NC[C@H](O)COc1nsnc1N1CCOCC1: -0.99

Record logD per entry; entries follow.
1. CCOC(=O)Nc1ccc2c(c1)N(C(=O)CCN1CCOCC1)c1ccccc1S2
2. CC1=NS(=O)(=O)c2cc(Cl)ccc2N1 [DIAZOXIDE]
3. C1COC(NC(C2CC2)C2CC2)=N1
4. O=C(NCCN1CCOCC1)c1ccc(Cl)cc1 [MOCLOBEMIDE]
5. Cc1ccc(C)c(OCCCC(C)(C)C(=O)O)c1
6. CCc1cccc2cc(C(O)CNC(C)(C)C)oc12 (stereo not given)

A)
1. 2.73
2. 1.2
3. -0.94
4. 1.26
5. 1.47
6. 1
